test system: Human Liver Microsomes; assay: in vitro
Experimental readout: Km (µM)

CN(C)CCCCCN1c2ccccc2Sc2ccc(C(F)(F)F)cc21 [Compound 5]; 6.8
